Source: a flash point compilation (Sun et al. 2020)

Catalogue of flash point readings, one per entry.
Report as a plain number; the unit °C is understood.

Worked examples follow.
compound | reading
O=CC1CO1 (stereo unspecified) [oxirane-2-carbaldehyde] | 31.00
C=C [ethene] | -136.00
Cc1ccc(N)c([N+](=O)[O-])c1 [4-methyl-2-nitroaniline] | 157.00
COc1ccc(OC)cc1 [1,4-dimethoxybenzene] | 88.00

Request the reported flash point associated with OCCS [2-sulfanylethanol]
74.00

Request the reported flash point associated with [CH3][Pb]([CH3])([CH3])[CH3] [tetramethylplumbane]
38.00

====

Catalogue of flash point readings, one per entry.

compound | reported.metric | reading
CC(C)(C)OOC(=O)c1ccccc1 [tert-Butyl perbenzoate] | flash point | 88.00 °C
CCO | flash point | 12.00 °C

Request the reported flash point associated with CCCCN(CCCC)CCCC
86.00 °C

Request the reported flash point associated with O=C(O)c1ccccc1
121.00 °C

Request the reported flash point associated with C=CC
-108.00 °C

Request the reported flash point associated with CCN1CCOCC1
32.00 °C
